Tested on: RAW-Dual (murine macrophage reporter line)
Method Notes: viability score (confluency relative to resting cells, overnight) (fraction); higher = more viable, active = viable (0.7 or more)
Condition Description: modulator concentration 10 µM
Response enum: active, inactive

Input: I'd appreciate the recorded outcome for O=[N+]([O-])c1ccc(Cl)c(C=Nc2cccc3c(N=Cc4cc([N+](=O)[O-])ccc4Cl)cccc23)c1 from this test.
Output: active

---
Input: I'd appreciate the recorded outcome for NNc1ncnc2scc(-c3ccc(Cl)cc3)c12 from this test.
Output: active

Input: I'd appreciate the recorded outcome for CN(C)CCCN1c2ccccc2Sc2ccccc21.Cl from this test.
Output: inactive

Input: I'd appreciate the recorded outcome for COC(=O)Nc1nc2cc(C(=O)c3ccccc3)ccc2[nH]1 from this test.
Output: inactive

Input: I'd appreciate the recorded outcome for CN1C(=O)OC(C)(C)C1=O from this test.
Output: active

Input: I'd appreciate the recorded outcome for CC(C)CN(CC(O)C(Cc1ccccc1)NC(=O)OC1COC2OCCC12)S(=O)(=O)c1ccc(N)cc1 (stereo unspecified) from this test.
Output: active
